Biological target: T1, CD70 ECD (antigen immobilized on the CM5 chip) (UniProt P32970 39-193)
T1 construct: extracellular domain; also called CD70 antigen
T1 sequence (looked up): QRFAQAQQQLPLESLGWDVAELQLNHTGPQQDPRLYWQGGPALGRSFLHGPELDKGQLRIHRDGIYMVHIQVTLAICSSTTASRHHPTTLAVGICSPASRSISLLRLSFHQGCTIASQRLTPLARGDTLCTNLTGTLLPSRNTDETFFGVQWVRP
Experiment: SPR (Biacore T200), CD70 ECD on CM5 chip, IgG as analyte
measured_parameter: koff (s⁻¹)
Answer format: numeric, s⁻¹ implied, no suffix.

1. 69A7 (parent antibody), full IgG (antibody, V domains shown, also called parent antibody 69A7) VH: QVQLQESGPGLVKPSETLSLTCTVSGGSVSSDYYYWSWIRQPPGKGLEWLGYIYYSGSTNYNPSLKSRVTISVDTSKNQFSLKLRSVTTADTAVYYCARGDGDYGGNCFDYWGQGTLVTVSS VL: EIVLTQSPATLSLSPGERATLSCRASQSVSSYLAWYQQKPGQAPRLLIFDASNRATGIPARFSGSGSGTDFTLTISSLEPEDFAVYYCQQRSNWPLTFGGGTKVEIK :: 0.00198
2. 2A4P0L1, full IgG (antibody, V domains shown) VH: QVQLQESGPGLVKPSETLSLTCTVSGGSVSSDYYYWSWIRQPPGKGLEWLGYIYYSGSTNYNPSLKSRVTISVDTSKNQFSLKLRSVTTADTAVYYCARGDGDYGGNVFPYWGQGTLVTVSS VL: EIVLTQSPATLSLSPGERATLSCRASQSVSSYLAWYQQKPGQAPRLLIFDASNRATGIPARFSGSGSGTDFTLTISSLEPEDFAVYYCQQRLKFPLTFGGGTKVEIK :: 0.00197

Turning now to a further binder:
Name the recorded koff of the binder listed here: 2E7, full IgG (antibody, V domains shown) VH: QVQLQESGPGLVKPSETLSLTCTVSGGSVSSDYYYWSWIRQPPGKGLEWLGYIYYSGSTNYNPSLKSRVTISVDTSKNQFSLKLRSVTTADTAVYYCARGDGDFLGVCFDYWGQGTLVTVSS VL: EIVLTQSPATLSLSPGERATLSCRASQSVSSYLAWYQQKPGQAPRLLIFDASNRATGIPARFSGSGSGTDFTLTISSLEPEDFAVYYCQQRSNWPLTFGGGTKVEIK
0.00106

This collection of values is drawn from patent US20250066490A1.
